Data origin: the supplement of paper PMC5998384

# thermal stability score per entry
Test system: HeLa Kyoto;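 note: synchronized HeLa Kyoto cells, proteins quantified by TMT10plex mass spectrometry, three biological replicates, mitosis taken 0.5 h after nocodazole release, G1/S directly after double thymidine block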
Assay: thermal stability score vs G1/S (z-score of summed log2 fold changes over temperatures); higher = more thermally stable than in G1/S
Conditions: cell cycle stage: mitosis

Solved entries:
| seq | assayedSystem | thermal stability score |
| --- | --- | --- |
| MAAARPSLGRVLPGSSVLFLCDMQEKFRHNIAYFPQIVSVAARMLKVARLLEVPVMLTEQYPQGLGPTVPELGTEGLRPLAKTCFSMVPALQQELDSRPQLRSVLLCGIEAQACILNTTLDLLDRGLQVHVVVDACSSRSQVDRLVALARMRQSGAFLSTSEGLILQLVGDAVHPQFKEIQKLIKEPAPDSGLLGLFQGQNSLLH [ISOC2] | HeLa Kyoto | -1.19 |
| MAAPALRLCHIAFHVPAGQPLARNLQRLFGFQPLASREVDGWRQLALRSGDAVFLVNEGAGSGEPLYGLDPRHAVPSATNLCFDVADAGAATRELAALGCSVPVPPVRVRDAQGAATYAVVSSPAGILSLTLLERAGYRGPFLPGFRPVSSAPGPGWVSRVDHLTLACTPGSSPTLLRWFHDCLGFCHLPLSPGEDPELGLEMTAGFGLGGLRLTALQAQPGSIVPTLVLAESLPGATTRQDQVEQFLARHKGPGLQHVGLYTPNIVEATEGVATAGGQFLAPPGAYYQQPGKERQIRAAGHEPHLLARQGILLDGDKGKFLLQVFTKSLFTEDTFFLELIQRQGATGFGQGNIRALWQSVQEQSARSQEA [HPDL] | HeLa Kyoto | 0.476 |

Switching to the query record.
Give thermal stability score for MAASCVLLHTGQKMPLIGLGTWKSEPGQVKAAVKYALSVGYRHIDCAAIYGNEPEIGEALKEDVGPGKAVPREELFVTSKLWNTKHHPEDVEPALRKTLADLQLEYLDLYLMHWPYAFERGDNPFPKNADGTICYDSTHYKETWKALEALVAKGLVQALGLSNFNSRQIDDILSVASVRPAVLQVECHPYLAQNELIAHCQARGLEVTAYSPLGSSDRAWRDPDEPVLLEEPVVLALAEKYGRSPAQILLRWQVQRKVICIPKSITPSRILQNIKVFDFTFSPEEMKQLNALNKNWRYIVPMLTVDGKRVPRDAGHPLYPFNDPY [AKR1A1] -1.09
